target: Cytochrome P450 11B2, mitochondrial (Homo sapiens, UniProt P19099); test: Inhibitory concentration against human cytochrome P450 11B2 expressing in V79 MZh cells using [14C]deoxycorticosterone as substrate measured by screening assay; assay type: cell-based
Sequence (P19099 whole entry): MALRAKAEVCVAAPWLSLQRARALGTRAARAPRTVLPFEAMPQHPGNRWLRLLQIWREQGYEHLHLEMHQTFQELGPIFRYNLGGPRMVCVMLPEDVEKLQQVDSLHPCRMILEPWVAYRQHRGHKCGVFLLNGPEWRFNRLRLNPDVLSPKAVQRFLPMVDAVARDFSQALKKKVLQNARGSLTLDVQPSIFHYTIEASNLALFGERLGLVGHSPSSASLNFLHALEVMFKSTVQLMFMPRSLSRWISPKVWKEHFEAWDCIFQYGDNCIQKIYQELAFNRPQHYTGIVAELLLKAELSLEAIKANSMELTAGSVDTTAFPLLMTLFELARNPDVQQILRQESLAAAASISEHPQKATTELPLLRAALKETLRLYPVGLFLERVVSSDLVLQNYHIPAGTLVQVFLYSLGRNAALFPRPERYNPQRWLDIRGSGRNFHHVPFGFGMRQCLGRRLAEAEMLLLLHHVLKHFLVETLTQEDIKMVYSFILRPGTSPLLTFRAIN
QUANTITY KIND: IC50 (nM)

MOLECULAR STRING: c1ccc2cc(-n3ccnc3)ccc2c1
QUANTITATIVE READOUT: 38.5

A: COc1ccc2cc(-n3ccnc3)ccc2c1
B: COc1cc2ccccc2cc1-n1ccnc1
Param metric = IC50; output whichever of A , B has the minimum value. Let me know the label of the one you choose.
B
(B: 19.1 nM, A: 218 nM)
